molecular target: α1A (rabbit urethra) (Oryctolagus cuniculus); construct: tested for α1A functional activity using rabbit urethra; from tissue; host or cells: rabbit urethra; experiment: Agonist contraction of smooth muscle tissue, rabbit urethra; type: cell-based; conditions: rabbit urethra; read-out: Agonist Tissue Response (pD2) α1A (rab ureth) (converted)
Sequence (O02824 whole entry): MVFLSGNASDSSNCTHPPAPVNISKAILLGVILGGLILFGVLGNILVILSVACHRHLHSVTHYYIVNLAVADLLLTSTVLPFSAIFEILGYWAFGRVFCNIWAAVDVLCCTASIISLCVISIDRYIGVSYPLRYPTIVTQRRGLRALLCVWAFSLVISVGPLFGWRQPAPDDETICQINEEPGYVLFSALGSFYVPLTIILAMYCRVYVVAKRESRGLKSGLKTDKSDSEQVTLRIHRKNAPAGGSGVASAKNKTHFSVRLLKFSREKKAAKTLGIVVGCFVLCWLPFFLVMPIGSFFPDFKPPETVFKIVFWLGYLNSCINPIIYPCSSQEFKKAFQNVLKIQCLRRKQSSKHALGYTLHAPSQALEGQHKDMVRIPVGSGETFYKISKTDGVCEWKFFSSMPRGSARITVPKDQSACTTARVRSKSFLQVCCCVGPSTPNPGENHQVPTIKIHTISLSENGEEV
Structures can show the parent of a compound that is named as a salt.
Parameter measured: EC50 (µM)

INSERT INTO measurements (compound, parameter_measured, measurement) VALUES
  ('CS(=O)(=O)Nc1ccc(F)c2c1CCCC2c1c[nH]cn1.O=C(O)/C=C\C(=O)O (centres unmarked) [Example 44, maleate]', 'EC50', 4.9),
  ('CS(=O)(=O)Nc1ccc(O)c2c1CCCC2c1c[nH]cn1 (centres unmarked) [Example 24, maleate]', 'EC50', 24.5),
  ('C=C(c1cccc(NS(=O)(=O)CC)c1)c1c[nH]cn1', 'EC50', 2),
  ('CS(=O)(=O)Nc1cc(Cc2c[nH]cn2)ccc1O [Example 11, hydrochloride]', 'EC50', 0.148),
  ('CCS(=O)(=O)Nc1cccc2c1CCCC2c1c[nH]cn1.O=C(O)/C=C\C(=O)O (single isomer, unassigned; (-)) [Example 34, maleate]', 'EC50', 28.2);
